Target under test: MycN protein (Homo sapiens, UniProt P04198)
Construct: either 2×10^6 of L-363 (human leukemia cell line) or SKNBE2 (neuroblastoma cell line) cells; endogenous in cells; host or cells: SKNBE2 / SK-N-BE(2) neuroblastoma cells
Sequence (P04198 1-464): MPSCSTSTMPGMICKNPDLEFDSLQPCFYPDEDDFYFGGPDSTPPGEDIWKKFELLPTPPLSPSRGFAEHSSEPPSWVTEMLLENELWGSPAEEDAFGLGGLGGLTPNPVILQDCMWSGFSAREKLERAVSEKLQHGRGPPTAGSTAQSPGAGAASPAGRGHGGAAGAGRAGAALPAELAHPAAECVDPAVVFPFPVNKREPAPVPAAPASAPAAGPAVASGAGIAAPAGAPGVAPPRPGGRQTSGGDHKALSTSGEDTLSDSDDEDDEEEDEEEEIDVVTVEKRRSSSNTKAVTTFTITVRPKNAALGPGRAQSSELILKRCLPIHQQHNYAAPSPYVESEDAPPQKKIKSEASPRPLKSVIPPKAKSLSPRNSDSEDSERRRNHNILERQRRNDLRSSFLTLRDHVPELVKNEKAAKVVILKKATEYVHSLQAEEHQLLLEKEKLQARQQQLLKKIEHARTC
Test name: Degradation of MycN protein, Western blot, SKNBE2 cells (Example 160)
Type: cell-based
Condition label: 6 h
Attribute measured: inhibition at 2 µM

The molecule listed as CN(c1nccc(Nc2cc(C3CC3)[nH]n2)n1)C1CCN(CC(=O)NC2Cc3ccc(C#N)cc3C2)CC1 (stereo not shown) has a reported inhibition at 2 µM of 80 to 100%

The molecule listed as CN(c1nccc(Nc2cc(C3CC3)[nH]n2)n1)C1CCC(CC(=O)NC2Cc3cc(F)c(F)cc3C2)CC1 (stereo not shown) has a reported inhibition at 2 µM of 20 to 49%

The molecule listed as `CS(=O)(=O)c1cccc(NC(=O)CN2CCC(Nc3nccc(Nc4cc(C5CC5)[nH]n4)n3)CC2)c1` has a reported inhibition at 2 µM of 50 to 79%

The molecule listed as `CN(c1nccc(Nc2cc(C3CC3)[nH]n2)n1)[C@H]1CC[C@H](NC(=O)c2cccc(C#N)c2)CC1` has a reported inhibition at 2 µM of 50 to 79%

The molecule listed as CN(c1nccc(Nc2cc(C3CC3)[nH]n2)n1)C1CCC(CC(=O)NC2Cc3ccccc3C2)CC1 (stereo not shown) has a reported inhibition at 2 µM of 80 to 100%

The molecule listed as `CN(c1nccc(Nc2cc(C3CC3)[nH]n2)n1)[C@H]1CC[C@H](C(=O)NC2Cc3ccccc3C2)CC1` has a reported inhibition at 2 µM of 80 to 100%

The molecule listed as CN(c1cc(C2CCCC2)[nH]n1)c1ccnc(N(C)C2CCC(CC(=O)NC3Cc4ccc(C#N)cc4C3)CC2)n1 (stereo not shown) has a reported inhibition at 2 µM of < 20%

###

Target under test: MycC protein (c-myc) (Homo sapiens)
Construct: either 2×10^6 of L-363 (human leukemia cell line) cells; endogenous in cells; host or cells: L-363 / L363 human leukemia cells
Test name: Degradation of MycC protein, 24 h treatment, JESS Western, L363 cells (Example 161)
Assay type: cell-based
Condition label: L-363 cells, 1 μM
Method: For L363 cells (suspension), 1E6 cells were plated into each well of a 6 well plate. For SK-N-BE(2) cells (adherent), 5E5 cells were plated into each well of a 6 well dish. […] All compounds were diluted to 10 mM in DMSO. […] Target protein antibodies (n-myc and c-myc) were detected in the chemi-luminescence channel and loading controls (tubulin and GAPDH) were detected using a Near Infra Red (NIR) labeled secondary antibody. […]
Would you mind telling me the reported inhibition at 1 µM of each entry?

The molecule listed as CN(c1nccc(Nc2cc(C3CC3)[nH]n2)n1)C1CCN(C2CC2)CC1 [Compound 38] has a reported inhibition at 1 µM of 80 to 100%

The molecule listed as CN(c1nccc(Nc2cc(C3CC3)[nH]n2)n1)C1CC2(C1)CN(Cc1cccc(OC(F)(F)F)c1)C2 [Compound 27] has a reported inhibition at 1 µM of 20 to 49%

The molecule listed as CN(c1nccc(Nc2cc(C3CC3)[nH]n2)n1)C1CC2(C1)CN(S(=O)(=O)c1cnn(C)c1)C2 [Compound 35] has a reported inhibition at 1 µM of 50 to 79%

The molecule listed as CN1CCN(C(=O)CN2CC3(CC(N(C)c4nccc(Nc5cc(C6CC6)[nH]n5)n4)C3)C2)CC1 [Compound 30] has a reported inhibition at 1 µM of 20 to 49%

###

Target under test: MycC protein (c-myc) (Homo sapiens)
Construct: either 2×10^6 of L-363 (human leukemia cell line) cells; endogenous in cells; host or cells: L-363 / L363 human leukemia cells
Test name: Degradation of MycC protein, 24 h treatment, JESS Western, L363 cells (Example 161)
Type: cell-based
Condition label: L-363 cells, 3 μM
Attribute measured: inhibition at 3 µM

Test item `CN(c1nccc(Nc2cc(C3CC3)[nH]n2)n1)C1CC2(C1)CN(Cc1cccc(S(C)(=O)=O)c1)C2` ; MycC protein (c-myc) (Homo sapiens); reported inhibition at 3 µM was 80 to 100%

Test item `CN(c1nccc(Nc2cc(C3CCCC3)[nH]n2)n1)C1CCN(C2CC2)CC1` ; MycC protein (c-myc) (Homo sapiens); reported inhibition at 3 µM was 80 to 100%

Test item `CN1CC2(CC(N(C)c3nccc(Nc4cc(C5CC5)[nH]n4)n3)C2)C1` ; MycC protein (c-myc) (Homo sapiens); reported inhibition at 3 µM was 50 to 79%

Test item `CN(c1nccc(Nc2cc(C3CC3)[nH]n2)n1)C1CC2(C1)CN(S(=O)(=O)c1cnn(C)c1)C2` ; MycC protein (c-myc) (Homo sapiens); reported inhibition at 3 µM was 80 to 100%

Test item `CN1CCN(C(=O)CN2CC3(CC(N(C)c4nccc(Nc5cc(C6CC6)[nH]n5)n4)C3)C2)CC1` ; MycC protein (c-myc) (Homo sapiens); reported inhibition at 3 µM was < 20%

Test item `CN(c1nccc(Nc2cc(C3CC3)[nH]n2)n1)C1CC2(C1)CN(C(=O)C1CCOCC1)C2` ; MycC protein (c-myc) (Homo sapiens); reported inhibition at 3 µM was 80 to 100%

Test item `CN(c1nccc(Nc2cc(C3CC3)[nH]n2)n1)C1CC2(C1)CN(Cc1cc(F)cc(F)c1)C2` ; MycC protein (c-myc) (Homo sapiens); reported inhibition at 3 µM was < 20%

Test item `CN(c1nccc(Nc2cc(C3CC3)[nH]n2)n1)C1CC2(C1)CN(CC1CC1)C2` ; MycC protein (c-myc) (Homo sapiens); reported inhibition at 3 µM was 50 to 79%

###

Target under test: MycN protein (n-myc) (Homo sapiens, UniProt P04198)
Construct: either 2×10^6 of L-363 (human leukemia cell line) or SKNBE2 (neuroblastoma cell line) cells; endogenous in cells; host or cells: SKNBE2 / SK-N-BE(2) neuroblastoma cells
Test name: Degradation of MycN protein, 24 h treatment, JESS Western, SK-N-BE(2) cells (Example 161)
Assay type: cell-based
Condition label: SKNBE2 cells, 1 μM
Attribute measured: inhibition at 1 µM

Test item `CN1CCC(Nc2nccc(Nc3cc(C4CC4)[nH]n3)n2)CC1` ; MycN protein (n-myc) (Homo sapiens, UniProt P04198); reported inhibition at 1 µM was < 20%

Test item `CN(c1nccc(Nc2cc(C3CC3)[nH]n2)n1)C1CC2(C1)CN(C(=O)c1cn(C)nn1)C2` ; MycN protein (n-myc) (Homo sapiens, UniProt P04198); reported inhibition at 1 µM was 50 to 79%

Test item `CN(c1nccc(Nc2cc(C3CC3)[nH]n2)n1)C1CC2(C1)CN(C(=O)c1cccc(C(F)(F)F)c1)C2` ; MycN protein (n-myc) (Homo sapiens, UniProt P04198); reported inhibition at 1 µM was < 20%

Test item `CN1CC2(CC(N(C)c3nccc(Nc4cc(C5CC5)[nH]n4)n3)C2)C1` ; MycN protein (n-myc) (Homo sapiens, UniProt P04198); reported inhibition at 1 µM was < 20%

###

Would you mind telling me the reported inhibition at 2 µM of each entry?
Target under test: MycC protein (Homo sapiens)
Construct: either 2×10^6 of L-363 (human leukemia cell line) or SKNBE2 (neuroblastoma cell line) cells; endogenous in cells; host or cells: L-363 / L363 human leukemia cells
Sequence (P01106 whole entry): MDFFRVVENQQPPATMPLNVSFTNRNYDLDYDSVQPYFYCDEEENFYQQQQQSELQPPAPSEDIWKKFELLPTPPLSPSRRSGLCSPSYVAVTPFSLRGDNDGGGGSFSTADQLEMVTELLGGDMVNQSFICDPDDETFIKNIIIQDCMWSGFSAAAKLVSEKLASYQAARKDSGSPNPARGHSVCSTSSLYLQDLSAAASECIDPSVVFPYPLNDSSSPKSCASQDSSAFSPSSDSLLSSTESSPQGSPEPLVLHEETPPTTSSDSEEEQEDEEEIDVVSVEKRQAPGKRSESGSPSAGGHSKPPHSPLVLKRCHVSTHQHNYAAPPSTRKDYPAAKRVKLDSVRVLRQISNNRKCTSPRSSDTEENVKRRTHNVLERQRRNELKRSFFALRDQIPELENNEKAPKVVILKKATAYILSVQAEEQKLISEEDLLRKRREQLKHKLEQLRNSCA
Test name: Degradation of MycC protein, Western blot, L-363 cells (Example 160)
Format: cell-based
Condition label: 6 h

Test item CN(c1nccc(Nc2cc(C3CC3)[nH]n2)n1)[C@H]1CC[C@H](NC(=O)Cc2cccc(S(C)(=O)=O)c2)CC1 [Compound 115] ; MycC protein (Homo sapiens); reported inhibition at 2 µM was 50 to 79%

Test item CN(c1nccc(Nc2cc(C3CC3)[nH]n2)n1)[C@H]1CC[C@H](NS(=O)(=O)c2cccc(S(C)(=O)=O)c2)CC1 [Compound 155] ; MycC protein (Homo sapiens); reported inhibition at 2 µM was 80 to 100%

Test item CN(c1nccc(Nc2cc(C3CC3)[nH]n2)n1)C1CCN(CC(=O)Nc2cn(C)nn2)CC1 [Compound 8] ; MycC protein (Homo sapiens); reported inhibition at 2 µM was 80 to 100%

Test item CN(c1nccc(Nc2cc(C3CC3)[nH]n2)n1)[C@H]1CC[C@H](NC(=O)c2cn3cccnc3n2)CC1 [Compound 141] ; MycC protein (Homo sapiens); reported inhibition at 2 µM was 80 to 100%
